Data credit: patent US11713338B2

- study system: recombinant integrin α4β1 (Homo sapiens, UniProt P05556+P13612)
- Construct: purchased R&D Systems 5397-A3-050
- Sequence (P13612 34-970 limits assumed): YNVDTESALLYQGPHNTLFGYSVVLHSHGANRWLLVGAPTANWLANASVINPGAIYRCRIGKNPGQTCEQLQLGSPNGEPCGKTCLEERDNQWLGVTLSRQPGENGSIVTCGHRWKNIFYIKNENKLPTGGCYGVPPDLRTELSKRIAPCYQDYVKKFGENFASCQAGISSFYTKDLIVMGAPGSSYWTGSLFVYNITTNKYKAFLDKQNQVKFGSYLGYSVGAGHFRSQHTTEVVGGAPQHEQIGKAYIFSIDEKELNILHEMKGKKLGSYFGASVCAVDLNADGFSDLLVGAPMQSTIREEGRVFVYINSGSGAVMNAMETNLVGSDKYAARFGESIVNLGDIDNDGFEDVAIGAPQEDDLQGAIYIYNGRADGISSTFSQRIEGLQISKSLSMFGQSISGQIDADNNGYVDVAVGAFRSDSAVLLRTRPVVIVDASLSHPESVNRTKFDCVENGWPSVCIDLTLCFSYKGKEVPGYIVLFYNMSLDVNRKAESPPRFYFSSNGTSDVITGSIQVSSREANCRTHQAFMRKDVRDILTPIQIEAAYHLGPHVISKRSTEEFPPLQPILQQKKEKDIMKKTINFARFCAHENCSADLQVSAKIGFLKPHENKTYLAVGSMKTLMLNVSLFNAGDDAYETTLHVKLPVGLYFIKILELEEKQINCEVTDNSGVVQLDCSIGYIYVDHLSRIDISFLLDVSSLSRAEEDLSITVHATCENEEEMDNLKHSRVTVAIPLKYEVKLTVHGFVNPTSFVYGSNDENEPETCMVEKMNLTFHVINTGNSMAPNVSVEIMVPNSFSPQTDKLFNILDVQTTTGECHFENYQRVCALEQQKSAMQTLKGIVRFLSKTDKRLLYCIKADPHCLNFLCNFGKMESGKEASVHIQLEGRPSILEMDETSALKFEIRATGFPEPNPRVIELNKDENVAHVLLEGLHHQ
- Sequence (P05556 21-728 limits assumed): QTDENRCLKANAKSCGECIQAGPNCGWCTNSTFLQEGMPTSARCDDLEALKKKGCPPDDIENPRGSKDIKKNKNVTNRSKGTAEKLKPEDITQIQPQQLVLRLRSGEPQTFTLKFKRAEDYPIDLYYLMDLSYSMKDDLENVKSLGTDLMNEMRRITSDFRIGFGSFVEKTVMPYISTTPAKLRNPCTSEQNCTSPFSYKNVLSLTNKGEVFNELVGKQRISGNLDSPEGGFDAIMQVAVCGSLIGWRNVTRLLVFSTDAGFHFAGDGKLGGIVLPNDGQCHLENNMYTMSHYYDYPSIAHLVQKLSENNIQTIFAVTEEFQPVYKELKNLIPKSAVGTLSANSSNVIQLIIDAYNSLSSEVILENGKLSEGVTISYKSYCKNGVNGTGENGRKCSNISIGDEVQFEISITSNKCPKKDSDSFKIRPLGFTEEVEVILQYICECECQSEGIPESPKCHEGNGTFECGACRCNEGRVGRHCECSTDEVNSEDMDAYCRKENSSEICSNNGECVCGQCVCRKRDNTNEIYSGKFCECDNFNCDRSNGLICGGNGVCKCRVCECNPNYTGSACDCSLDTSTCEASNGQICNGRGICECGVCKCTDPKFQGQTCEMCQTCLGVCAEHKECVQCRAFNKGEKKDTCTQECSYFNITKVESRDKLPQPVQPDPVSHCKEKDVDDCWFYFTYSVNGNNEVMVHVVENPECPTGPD
- assay overview: Integrin α4β1—VCAM-1 competition ELISA
- Type: binding
- protocol conditions: read-out: ELISA a4b1 Assay IC50
pIC50: −log10 of the molar value.

# compound, pIC50
data = [
    ("CC(C)C[C@@H]1NC(=O)c2cc(cc(-c3ccncc3)c2)CNC(=O)[C@@H]2CCCN2[C@H](C(=O)NC(C)(C)C)[C@H](C)NC(=O)[C@H]([C@@H](C)O)NC(=O)[C@H](CC(=O)O)NC1=O [Compound 362]", 6.62),
    ("CC(C)C[C@@H]1NC(=O)CN(C)C(=O)[C@H](Cc2cccc(I)c2)NC(=O)[C@@H]2CCCN2[C@H](C(=O)NC(C)(C)C)[C@H](C)NC(=O)[C@H]([C@@H](C)O)NC(=O)[C@H](CC(=O)O)NC1=O [Compound 106]", 5.96),
    ("CC(C)C[C@@H]1NC(=O)C[C@H](CCCCN)NC(=O)[C@](C)(Cc2ccccc2)NC(=O)[C@@H]2CCCN2[C@H](C(=O)NC(C)(C)C)[C@H](C)NC(=O)[C@H]([C@@H](C)O)NC(=O)[C@H](CC(=O)O)NC1=O [Compound 263]", 5.63),
    ("C=CCOc1ccc(C[C@@H]2NC(=O)[C@@H]3CCCN3[C@H](C(=O)NC(C)(C)C)[C@H](C)NC(=O)[C@H]([C@@H](C)O)NC(=O)[C@H](CC(=O)O)NC(=O)[C@H](CC(C)C)NC(=O)[C@@H](C(C)C)NC2=O)cc1 [Compound 166]", 5.86),
]
